Values compiled from patent US20260001871A1.

- MEASUREMENT TARGET: UniProt:Q8TDS7
- MEASUREMENT NOTES: MRGPRD antagonist activity, IP-One HTRF assay in CHO cells stably expressing human MRGPRD (versus 100 μM β-Alanine agonist)
pIC50: −log10 of the molar value.
EXPERIMENTAL ENDPOINT: pIC50

# example entries with known answers
{"columns": ["MOLECULE", "pIC50"],
 "data": [
  ["CC(C)c1c(C(=O)NC2(c3cccnc3)CC2)nnn1-c1ccc(-c2ccc(C#N)c(F)c2)cc1 [Compound 18-26]", "5.52 to 6.00"],
  ["Cc1nn(C)c(C)c1-c1ccc(-n2nnc(C(=O)NCc3nc4ccccc4n3C)c2C2CC2)cc1 [Compound 7-209]", "5.52 to 6.00"],
  ["CCc1cc(NC(=O)c2nnn(-c3ccc(-c4c(C)nn(C)c4C)cc3)c2C2CC2)ccn1 [Compound 9-2]", "> 7.00"]
]}

Entry CCCn1cc(-c2cccc(-n3nnc(C(=O)Nc4ccncc4)c3C3CC3)c2)cn1 [Compound 7-306] has what pIC50? 5.52 to 6.00

Entry CN(C)C(=O)c1ccc(-c2ccc(-n3nnc(C(=O)Nc4ccncc4)c3C3CC3)cc2)cc1 [Compound 7-207] has what pIC50? 5.52 to 6.00

Entry CC(=O)c1ccccc1-c1cccc(-n2nnc(C(=O)Nc3ccncc3)c2C2CC2)c1 [Compound 7-8] has what pIC50? < 5.52

Entry CC(=O)c1ccc(-c2cccc(-n3nnc(C(=O)NCc4ccc(C)nc4)c3C3CC3)c2)c(F)c1 [Compound 7-297] has what pIC50? 5.52 to 6.00

Entry N#Cc1ccccc1-c1cccc(-n2nnc(C(=O)Nc3ccncc3)c2C2CC2)c1 [Compound 7-334] has what pIC50? < 5.52

Entry Cc1nn(C)c(C)c1-c1ccc(-n2nnc(C(=O)Nc3ccccc3)c2C(C)C)cc1 [Compound 17-16] has what pIC50? 6.30 to 7.00

Entry CCn1cc(C2(NC(=O)c3nnn(-c4ccc(-c5ccc(C#N)nc5)cc4)c3C(C)C)CC2)cn1 [Compound 18-27] has what pIC50? 5.52 to 6.00

Entry CCc1ncccc1C1(NC(=O)c2nnn(-c3ccc(-c4ccc(C#N)cc4)cc3)c2C2CC2)CC1 [Compound 15-18] has what pIC50? 5.52 to 6.00

Entry O=C(Nc1ccncc1)c1nnn(-c2cccc3ccccc23)c1C1CC1 [Compound 6-2] has what pIC50? 6.30 to 7.00

Entry N#Cc1ccc(-c2ccc(-n3nnc(C(=O)Nc4ccnc(F)c4)c3C3CC3)cc2)cc1F [Compound 9-36] has what pIC50? 6.30 to 7.00

Entry COc1cccc(C)c1NC(=O)c1nnn(-c2ccc(-c3ccccc3)cc2)c1C1CC1 [Compound 14-62] has what pIC50? 5.52 to 6.00

Entry CCc1ccc(-n2nnc(C(=O)Nc3ccncc3)c2C2CC2)cc1 [Compound 3-2] has what pIC50? 5.52 to 6.00

Entry CCc1ccccc1-n1nnc(C(=O)Nc2ccncc2)c1C1CC1 [Compound 3-3] has what pIC50? 5.52 to 6.00

----------
- MEASUREMENT TARGET: human MRGPRD (Homo sapiens, UniProt Q8TDS7)
- Sequence (Q8TDS7 whole entry): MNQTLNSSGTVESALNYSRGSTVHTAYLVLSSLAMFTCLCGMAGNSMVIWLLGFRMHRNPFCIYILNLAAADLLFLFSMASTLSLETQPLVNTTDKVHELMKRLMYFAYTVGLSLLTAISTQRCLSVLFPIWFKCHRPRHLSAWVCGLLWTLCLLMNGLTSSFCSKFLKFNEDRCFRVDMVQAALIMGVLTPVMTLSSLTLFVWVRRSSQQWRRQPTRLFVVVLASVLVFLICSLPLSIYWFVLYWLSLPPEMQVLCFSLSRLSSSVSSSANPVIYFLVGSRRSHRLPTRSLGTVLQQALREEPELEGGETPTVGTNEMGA
- MEASUREMENT NOTES: MRGPRD antagonist activity, IP-One HTRF assay in CHO cells stably expressing human MRGPRD (versus 100 μM β-Alanine agonist)
- Method: Chinese Hamster Ovary (CHO) cells stably expressing human MRGPRD (Eurofins, San Diego CA) were plated in a 384-well plate at 20,000 cells per well in 12 μL of Optimem (Fisher Scientific 11-058-021). Plates were kept in the incubator at 37° C. overnight. […] Assay plates were read on either a Molecular Devices SpectraMax iD5 plate reader or a BMG ClarioStar plate reader. The HTRF ratio was calculated form the raw data and graphed using GraphPad Prism to calculate IC50 values. […]
Each entry below carries its recorded IC50.

Item "CC(=O)c1cccc(-c2cccc(-n3nnc(C(=O)Nc4ccncc4)c3C3CC3)c2)c1" with human MRGPRD (Homo sapiens, UniProt Q8TDS7) - IC50? 100 to 500 nM

Item "Cc1ccc(CNC(=O)c2nnn(-c3ccc(-c4ccc(C#N)cc4C)cc3)c2C2CC2)cn1" with human MRGPRD (Homo sapiens, UniProt Q8TDS7) - IC50? 100 to 500 nM

----------
Each entry below carries its recorded pIC50.
- MEASUREMENT TARGET: UniProt:Q8TDS7
- MEASUREMENT NOTES: MRGPRD antagonist activity, IP-One HTRF assay in CHO cells stably expressing human MRGPRD (versus 100 μM β-Alanine agonist)
- Type: cell-based
pIC50: −log10 of the molar value.

# example entries with known answers
{"columns": ["COMPOUND", "MEASUREMENT TARGET", "pIC50"],
 "data": [
  ["Cc1nn(C)c(C)c1-c1ccc(-n2nnc(C(=O)NC(C)(C)c3cccnc3)c2C2CC2)cc1", "UniProt:Q8TDS7", "6.00 to 6.30"],
  ["CC(C)C(=O)c1cccc(-c2ccc(-n3nnc(C(=O)Nc4ccncc4)c3C3CC3)cc2)c1", "UniProt:Q8TDS7", "6.30 to 7.00"],
  ["Cc1cc(NC(=O)c2nnn(C3CCC(c4c(C)nn(C)c4C)CC3)c2C2CC2)ccn1 (centres unmarked)", "UniProt:Q8TDS7", "5.52 to 6.00"]
]}

Entry "COc1ccc(-c2ccc(-n3nnc(C(=O)Nc4ccnc(C)c4)c3C3CC3)cc2)cn1" has what pIC50? 6.30 to 7.00

Entry "O=C(Nc1ccncc1)c1nnn(-c2ccc(-c3ccc(C(F)F)cc3)cc2)c1C1CC1" has what pIC50? 6.30 to 7.00

Entry "CCc1ccc(-n2nnc(C(=O)Nc3ccncc3)c2C2CC2)cc1-c1cnn(C(C)C)c1" has what pIC50? 5.52 to 6.00

Entry "O=C(Nc1ccncc1)c1nnn(-c2cccc(-c3cccc(F)c3)c2)c1C1CC1" has what pIC50? 5.52 to 6.00

Entry Cc1n[nH]c2ncnc(NC(=O)c3nnn(C4CC=C(c5ccc(C#N)cc5)CC4)c3C3CC3)c12 (centres unmarked) has what pIC50? 6.30 to 7.00

----------
- MEASUREMENT TARGET: human MRGPRD (Homo sapiens, UniProt Q8TDS7)
- MEASUREMENT NOTES: MRGPRD antagonist activity, IP-One HTRF assay in CHO cells stably expressing human MRGPRD (versus 100 μM β-Alanine agonist)
EXPERIMENTAL ENDPOINT: IC50

{"columns": ["MOLECULE", "IC50"],
 "data": [
  ["CC(O)c1ccc(-c2ccc(-n3nnc(C(=O)Nc4ccncc4)c3C3CC3)cc2)cc1 (stereo not drawn) [Compound 7-83]", "100 to 500 nM"],
  ["Cc1nn(C)c(C)c1-c1ccc(-n2nnc(C(=O)Nc3ccncc3)c2C2CC2)cn1 [Compound 7-232]", "100 to 500 nM"]
]}

Entry CC(=O)c1ccc(-n2nnc(C(=O)Nc3ccncc3)c2C2CC2)cc1 [Compound 2-10] has what IC50? 1000 to 3000 nM

Entry N#Cc1cc(NC(=O)c2nnn(-c3ccc(-c4ccccc4)cc3)c2C2CC2)ccn1 [Compound 14-26] has what IC50? 500 to 1000 nM

Entry Cc1ncccc1CNC(=O)c1nnn(-c2ccc(-c3c(C)nn(-c4ccccc4)c3C)cc2)c1C1CC1 [Compound 9-4] has what IC50? < 100 nM

Entry CCn1cc(CNC(=O)c2nnn(-c3ccc(-c4ccccc4)cc3)c2C(C)C)cn1 [Compound 17-13] has what IC50? 100 to 500 nM

----------
- MEASUREMENT TARGET: human MRGPRD (Homo sapiens, UniProt Q8TDS7)
- MEASUREMENT NOTES: MRGPRD antagonist activity, IP-One HTRF assay in CHO cells stably expressing human MRGPRD (versus 100 μM β-Alanine agonist)
- Experimental: Chinese Hamster Ovary (CHO) cells stably expressing human MRGPRD (Eurofins, San Diego CA) were plated in a 384-well plate at 20,000 cells per well in 12 μL of Optimem (Fisher Scientific 11-058-021). Plates were kept in the incubator at 37° C. overnight. […] Assay plates were read on either a Molecular Devices SpectraMax iD5 plate reader or a BMG ClarioStar plate reader. The HTRF ratio was calculated form the raw data and graphed using GraphPad Prism to calculate IC50 values. […]
Each entry below carries its recorded IC50.

# example entries with known answers
{"columns": ["SMILES CODE", "IC50"],
 "data": [
  ["Cc1ccc(CNC(=O)c2nnn(-c3ccc(-c4cnn5c4CCC5)cc3)c2C2CC2)cn1", "1000 to 3000 nM"],
  ["CS(=O)(=O)c1cccc(-c2ccc(-n3nnc(C(=O)Nc4ccncc4)c3C3CC3)cc2)c1", "100 to 500 nM"],
  ["CCn1cc(C2(NC(=O)c3nnn(-c4ccc(-c5ccc(C#N)c(F)c5)cc4)c3C3CC3)CC2)cn1", "100 to 500 nM"],
  ["O=C(Nc1ccncc1)c1nnn(-c2ccc(-c3ccc(C4CCCC4)cc3)cc2)c1C1CC1", "1000 to 3000 nM"],
  ["N#Cc1cnn(-c2ccccc2)c1-c1ccc(-n2nnc(C(=O)Nc3ccncc3)c2C2CC2)cc1", "> 3000 nM"]
]}

Entry "Cc1cc(-c2ccc(-n3nnc(C(=O)Nc4ccncc4)c3C3CC3)cc2)sn1" has what IC50? 1000 to 3000 nM

Entry "O=C(Nc1ccncc1)c1nnn(-c2ccc(-c3nccs3)cc2)c1C1CC1" has what IC50? 1000 to 3000 nM

Entry "Cc1cc(NC(=O)c2nnn(-c3cccc(-c4ccn(-c5ccccc5)n4)c3)c2C2CC2)ccn1" has what IC50? 500 to 1000 nM

Entry "O=C(Nc1ccncc1)c1nnn(-c2ccc(-c3cccc(C4CC4)c3)cc2)c1C1CC1" has what IC50? 100 to 500 nM
